Below, each of the variants is paired with its reported abundance fitness value.
B1: SH3 and PX domain-containing protein 2B, residues 155 to 209; numbered along this chain, A1X283 (parent)
chain: EQYVVVANYQKQESSEISLSVGQVVDIIEKNESGWWFVSTAEEQGWVPATCLEGQ

Variants of: B1
procedure-details: abundance fitness (aPCA) (normalised: wild type 0, dead -1); higher = more abundant; growth selection in yeast, the domain comes from the species named
measurement-conditions: Homo sapiens
# answer = number (no unit)

1. EQYVVVANYQKQESSEISLSVGQVVDIIEKNESGWWFVSTAEEQGWVPATCLEGR [Q55R] :: 0.054
2. EQYVVVANYQKQESSEISLSVGQVVDIIEKNESGWWFVSTAESQGWVPATCLEGQ [E43S] :: 0.033
3. EQYVVVANYQKQFSSEISLSVGQVVDIIEKNESGWWFVSTAEEQGWVPATCLEGQ [E13F] :: -0.229

Exercise: Entry EQYVVVANYQKQESSEISLSVGQVVDIIEKNESGWWFVSTAEEQGWVLATCLEGQ [P48L] needs its abundance fitness filled in; supply it.
Key: -0.455

Exercise: Using the record for EQYVVVANYQKQESNEISLSVGQVVDIIEKNESGWWFVSTAEEQGWVPATCLEGQ [S15N] , state its measured abundance fitness.
Key: -0.061

Exercise: Report abundance fitness for EQYVVVANYQKQESSEISLSVGQVVDIIEKNESGWWFVSTAEEQGWFPATCLEGQ [V47F]
Key: -0.229

Exercise: Find the measured abundance fitness of EQYVVVANYQKQEGSEISLSVGQVVDIIEKNESGWWFVSTAEEQGWVPATCLEGQ [S14G] and report it.
Key: -0.071
